target: mouse TGR5 receptor (Mus musculus); construct: expressed in transfected cells; host or cells: HEK293-EBNA (293 c18, ATCC CRL10852), Hygromycin B selection; assay: Mouse TGR5 cAMP production assay (HTRF, Cisbio cAMP HiRange); format: cell-based; conditions: HEK293-EBNA cells overexpressing mouse TGR5, HTRF cAMP HiRange; coded A-D
Sequence (Q80SS6 whole entry): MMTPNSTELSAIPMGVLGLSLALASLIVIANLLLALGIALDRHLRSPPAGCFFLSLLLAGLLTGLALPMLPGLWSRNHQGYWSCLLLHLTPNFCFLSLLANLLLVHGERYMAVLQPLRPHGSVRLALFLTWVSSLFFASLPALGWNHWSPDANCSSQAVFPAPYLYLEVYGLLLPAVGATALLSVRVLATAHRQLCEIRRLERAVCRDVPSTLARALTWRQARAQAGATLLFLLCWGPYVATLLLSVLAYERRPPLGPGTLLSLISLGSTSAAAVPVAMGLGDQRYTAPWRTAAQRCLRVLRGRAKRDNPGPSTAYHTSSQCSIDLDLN
pEC50: −log10 of the molar value.
Quick reference: pEC50 of the listed items.

Cc1cnccc1-c1cccc(C(C)N(CCNc2c(NCS(=O)(=O)O)c(=O)c2=O)S(=O)(=O)c2cccc(Cl)c2C)c1 (stereo not shown) = 4.52 to 6.00
CC(C)(NS(=O)(=O)c1ccccc1C(F)(F)F)c1cccc(-c2ccc3[nH]cnc3c2)c1 = < 4.52

What reported pEC50 corresponds to Cc1cnccc1-c1cccc([C@H](C)N(CCCCC(=O)NCCS(=O)(=O)O)S(=O)(=O)c2cccc(Cl)c2C)c1 [Compound 20AH] on mouse TGR5 receptor (Mus musculus)?
> 7.00

What reported pEC50 corresponds to Cc1cnccc1-c1cccc([C@H](C)N(CCCC(=O)O)S(=O)(=O)c2ccccc2C)c1 [Compound 16AD] on mouse TGR5 receptor (Mus musculus)?
6.00 to 7.00
